Tested on: SR leukemia
protocol: NCI tumour cell line growth inhibition, 48 h
value.kind: TGI

Query "Cc1cc(Cl)ccc1N=NC(=O)NNc1ccc(Cl)cc1C" yields TGI of 80.7 µM

Query "CN(C)CCO/N=C1/C=C2CC[C@H]3[C@@H]4CC[C@H](O)[C@@]4(C)CC[C@@H]3[C@@]2(C)CC1" yields TGI of 19.6 µM

Query CC1(C)OCC(C2OC(N3O[C@H](CI)C[C@@H]3c3ccccc3)C3OC(C)(C)OC23)O1 (stereo not given in full) yields TGI of > 100 µM

Query "CCSc1nc(N=Cc2cccs2)c2cn[nH]c2n1" yields TGI of 7.21 µM

Query N.N.NC(CS)C(=O)[O-].NC(CS)C(=O)[O-].[Pt+4] (stereo not given) yields TGI of > 50 µM
